The reported measurements were obtained from patent US20230116972A1.

- system-under-test: CYP1A2 (Homo sapiens, UniProt P05177)
- Construct: from tissue; host or cells: human liver microsomes (pooled in the time-dependent assay)
- Sequence (P05177 whole entry): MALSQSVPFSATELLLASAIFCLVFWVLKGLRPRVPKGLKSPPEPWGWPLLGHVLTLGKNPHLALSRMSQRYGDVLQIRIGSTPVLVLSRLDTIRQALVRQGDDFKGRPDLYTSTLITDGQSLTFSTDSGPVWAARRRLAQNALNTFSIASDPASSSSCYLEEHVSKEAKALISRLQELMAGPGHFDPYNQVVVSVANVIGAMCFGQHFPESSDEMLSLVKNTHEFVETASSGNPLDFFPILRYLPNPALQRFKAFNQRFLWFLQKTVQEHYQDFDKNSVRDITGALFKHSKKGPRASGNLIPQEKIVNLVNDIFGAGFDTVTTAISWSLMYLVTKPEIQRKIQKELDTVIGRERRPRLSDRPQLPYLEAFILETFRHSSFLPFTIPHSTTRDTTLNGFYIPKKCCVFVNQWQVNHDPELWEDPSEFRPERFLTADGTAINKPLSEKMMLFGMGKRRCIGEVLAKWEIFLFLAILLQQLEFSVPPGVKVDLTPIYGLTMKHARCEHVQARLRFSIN
- assay-name: direct inhibition of CYP450 in human liver microsomes
- Assay type: in vitro ADME
- particulars: 3 uM, human liver microsomes, % of non-inhibited control; read-out: CYP1A2 T0 % activity
outcome-measure: activity at 3 µM (%)
Numbers only, in %.

Use the examples below as a reference point.
Q: Specify reported activity at 3 µM for the compound shown: [2H]c1nc([2H])n(-c2nc(C)cc(C(=O)N[C@H]3CC[C@H](OCCOC)CC3)n2)c1[2H] [Comparator Compound A, reference compound]
A: 98

Q: Specify reported activity at 3 µM for the compound shown: `CO[C@H]1CC[C@H](NC(=O)c2cc(C3CCOCC3)nc(-c3cncn3C)n2)CC1`
A: 96

Q: Specify reported activity at 3 µM for the compound shown: `Cn1cncc1-c1ccnc(C(=O)N[C@H]2CC[C@H](O)CC2)n1`
A: 94

Here are 2 compounds. What values of activity at 3 µM were reported for them?
1. CO[C@H]1CC[C@H](NC(=O)c2cc(C3(C)COC3)nc(-c3cncn3C)n2)CC1
2. CO[C@H]1CC[C@H](NC(=O)c2cc(C3CCC(F)(F)CC3)nc(-c3cncn3C)n2)CC1

A:
1: 101; 2: 100
